Target: soluble gp41 MPER peptide RRR-(656-683)-RRR
Test: kinetic binding (ka/kd)
Lab note - cut at 80 nM for Kd: criterion met if strictly below, criterion not met if not.

{"columns": ["binder", "class"],
 "data": [
  ["G52cA (heavy chain) (antibody, V domains shown) VH: EVQLVESGGGLVKPGGSLRLSCSASGFDFDNAWMTWVRQPPGKGLEWVGRITGPAEGWSVDYAAPVEGRFTISRLNSINFLYLEMNNLRMEDSGLYFCARTGKYYDFWSGYPPGEEYFQDWGRGTLVTVSS VL: SYELTQETGVSVALGRTVTITCRGDSLRSHYASWYQKKPGQAPILLFYGKNNRPSGVPDRFSGSASGNRASLTISGAQAEDDAEYYCSSRDKSGSRLSVFGGGTKLTVL", "criterion met"]
]}

Kindly review the next binder as well.
Kd strictly < 80 nM for this binder? P100gA (heavy chain) (antibody, V domains shown) VH: EVQLVESGGGLVKPGGSLRLSCSASGFDFDNAWMTWVRQPPGKGLEWVGRITGPGEGWSVDYAAPVEGRFTISRLNSINFLYLEMNNLRMEDSGLYFCARTGKYYDFWSGYPAGEEYFQDWGRGTLVTVSS VL: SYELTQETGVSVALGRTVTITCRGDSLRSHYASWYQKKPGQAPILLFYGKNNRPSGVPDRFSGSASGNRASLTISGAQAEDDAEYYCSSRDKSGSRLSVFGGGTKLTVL criterion not met
